Molecular target: HLA-A*0206 (human)
Assay: inhibition of 125I probe peptide, purified HLA
Conditions: remark: other sources report otherwise
Measured Quantity: pIC50
Give bare numbers, as −log10 of the molar value.

Reported pIC50 for YLSGANLNV [CEA.605.V9] was 7.10
